Record form. Attribute: TGI. Fill in for each entry.
Tested on: UO-31 renal
Experiment: NCI tumour cell line growth inhibition, 48 h

Some molecules with recorded TGI:
CSc1ncc2c(n1)-c1ccccc1OC2N1CCCC1 (stereo not drawn) | > 100 µM
CCOC(=O)CCC(=O)C1c2cccc(O)c2C(=O)c2c(O)cccc21 | 1.48 µM
C/C=C/[C@H]1O[C@@](OC)([C@@H](C)[C@H](O)[C@H](C)[C@H]2OC(=O)/C(OC)=C/C(C)=C/[C@@H](C)[C@@H](O)[C@@H](C)[C@@H](O)[C@H](C)C/C(C)=C/C=C/[C@@H]2OC)CC(OC2CC(O)C(OC(N)=O)C(C)O2)[C@@H]1C (stereo partly drawn) | < 0.01 µM
CCOC(=O)C(C)(C)Oc1ccc2c(=O)cc(-c3ccc(Cl)cc3)oc2c1 | > 100 µM
COc1ccc(NC(=O)C2C(=O)N(c3ccc(OC)cc3)C(=O)/C2=N/O)cc1 (stereo not drawn) | 47 µM
O=C(NNC(=S)Nc1ccccc1)c1csc(NC(=S)NC2CCCCC2)n1 | 79.6 µM

The following molecules each have a reported value; give each one's TGI.
1. COc1cc(-c2cnn(C)c2)ccc1Nc1ncc2ccnc(N[C@@H](C)C(C)(C)C)c2n1
2. CCN(CC)c1ccc(N=Nc2ccc(-c3nc4cccnc4o3)cc2)cc1

1: > 100 µM; 2: > 100 µM

----------
System: RPMI-8226 leukemia
Experiment: NCI tumour cell line growth inhibition, 48 h
Observed Property: TGI (µM)
Numbers only, in µM.

Some compounds with recorded TGI:
COc1ccc(-c2c(C#N)c(-c3ccccc3)n(NS(=O)(=O)c3ccccc3)c(=O)c2C#N)cc1 | 68.8
O=C(Oc1ccc(O)c2c(=O)n3c(cc12)[nH]c1ccccc13)c1ccccc1 | 51.4
CCOc1ccc(/C=C/C(=O)c2ccccc2)cc1 | 20.5

Switching to the query record.
What value of TGI has been reported for the following compound? `O=[N+]([O-])c1ccc2[nH]cc(-c3c4ccsc4cc4[nH]c5ccc([N+](=O)[O-])cc5c34)c2c1`
5.1

----------
Record form. Attribute: TGI. Fill in for each entry.
Test system: SF-295 CNS
Test: NCI tumour cell line growth inhibition, 48 h
One number for each entry, in µM.

Some molecules with recorded TGI:
Cc1ccc(S(=O)(=O)N2CCN(CCN(C)CCN3CCN(S(=O)(=O)c4ccc(C)cc4)CC3)CC2)cc1 | 31.9
O=C1C=C(c2c(O)ccc3ccccc23)c2ccccc2C1=O | 12.4
O=[N+]([O-])c1ccc2[nH]cc(-c3c4ccsc4cc4[nH]c5ccc([N+](=O)[O-])cc5c34)c2c1 | 3.09

Switching to the query record.
What value of TGI has been reported for the following molecule? CN1CCN(CCSC2Cc3cc(Cl)ccc3Sc3ccccc32)CC1 (stereo not given)
15.6

----------
Record form. Attribute: GI50. Fill in for each entry.
Tested on: EKVX NSCLC
Test: NCI tumour cell line growth inhibition, 48 h

Some compounds with recorded GI50:
COc1ccc2c(c1)sc1nc(-c3ccccc3)c(-c3ccsc3)n12 | 7.76 µM
O=C(Oc1ccc(O)c2c(=O)n3c(cc12)[nH]c1ccccc13)c1ccccc1 | 24.3 µM
O=C(Nc1ccc(Cl)cc1)Nc1ccc(Cl)c(Cl)c1 | 3.41 µM

The following compounds each have a reported value; give each one's GI50.
1. C[CH2][Sn]1([CH2]C)[O]C(=O)[O][Sn]([CH2]C)([CH2]C)[O]1
2. COc1cc([C@H](C)c2ccc3ccccc3c2)cc(OC)c1OC

["> 41.8 µM", "0.941 µM"]

----------
Tested on: NCI-H23 lung
Test: NCI tumour cell line growth inhibition, 48 h; in the data active = GI50 below about 0.43 µM; inactive = the rest
Your reply should match one of these outcome classes. active, inactive

Recorded results for 5 molecules are shown here.
COc1cc(-c2cnn(C)c2)ccc1Nc1ncc2ccnc(N[C@@H](C)C(C)(C)C)c2n1 | inactive
CC1=CC[C@@H]2CC[C@]3(C)[C@H](CC[C@@H]4[C@@]5(C)CCCNC(C)(C)[C@@H]5CC[C@]43C)[C@H]2[C@@H]1C | inactive
O=C(Nc1ccc(Cl)cc1)Nc1ccc(Cl)c(Cl)c1 | inactive
O=c1ccn(C2OC(CO)C(O)C2O)c(=O)[nH]1 (stereo not drawn) | inactive
CN(C)CCNc1nc2ccccc2c2c1c1c(n2Cc2ccccc2)-c2ccccc2C1=O | inactive

Name the outcome recorded for `CCOC(=O)[C@@H](C)C[C@H](Cc1ccccc1)NC(=O)c1csc([C@@H](C[C@H](C(C)C)N(C)C(=O)[C@@H](NC(=O)[C@H]2C[C@H](O[Si](C)(C)C(C)(C)C)CCN2C)C(C)C)OC(C)=O)n1` in the assay.
active

Name the outcome recorded for `COc1cc2c(cc1OCc1ccccc1)N=C[C@@H]1C/C(=C/C(=O)NCCCN3C(=O)c4cccc5cccc(c45)C3=O)CN1C2=O` in the assay.
active

Name the outcome recorded for `COc1cc(OC)c(/C=C/c2ccc3ccccc3[n+]2C)c(OC)c1` in the assay.
inactive

Name the outcome recorded for `O=C1c2cc(Br)ccc2-c2c1c1ccc([N+](=O)[O-])cc1c(=O)n2CCCCl` in the assay.
inactive

Name the outcome recorded for `C[CH2][Sn]1([CH2]C)[O]C(=O)[O][Sn]([CH2]C)([CH2]C)[O]1` in the assay.
inactive

Name the outcome recorded for `Clc1nc(Oc2ccccc2)nc(-c2cn(-c3ccccc3)c3ccccc23)n1` in the assay.
inactive

Name the outcome recorded for `CC[N+](CCCCCCCCCC[N+](CC)(c1ccccn1)c1ccccn1)(c1ccccn1)c1ccccn1` in the assay.
inactive

Name the outcome recorded for `COC(=O)CCC/C=C\C[C@H]1C=CC(=O)/C1=C/C[C@@H](O)CCc1cccc(C(F)(F)F)c1` in the assay.
inactive

----------
Test system: K-562 leukemia
Experiment: NCI tumour cell line growth inhibition, 48 h; in the data active = GI50 below about 0.43 µM; inactive = the rest
Your reply should match one of these outcome classes. true (1) for active, false (0) for inactive

Recorded results for 5 compounds are shown here.
C[CH2][Sn]1([CH2]C)[O]C(=O)[O][Sn]([CH2]C)([CH2]C)[O]1 | false (0)
CC(=O)Oc1cc(C)ccc1[C@]1(C)CC[C@H](C)/C1=C\Br | false (0)
O=C(Oc1ccc(O)c2c(=O)n3c(cc12)[nH]c1ccccc13)c1ccccc1 | false (0)
COc1c/c(=C2/C=c3ccccc3=N2)[nH]/c1=C/c1[nH]c(C)cc1C | true (1)
COc1cccc(-c2nc3sccn3c2-c2ccnc(NCCNC(=O)Nc3cccc(C(F)(F)F)c3)n2)c1 | false (0)

Name the outcome recorded for `CCCCNc1nc(NC(C)(C)C)nc(NC(C)(C)C)n1` in the assay.
false (0)

Name the outcome recorded for `COc1cc([C@H](C)c2ccc3ccccc3c2)cc(OC)c1OC` in the assay.
true (1)

Name the outcome recorded for `O=[N+]([O-])c1ccc2[nH]cc(-c3c4ccsc4cc4[nH]c5ccc([N+](=O)[O-])cc5c34)c2c1` in the assay.
false (0)

Name the outcome recorded for `COc1cc(OC)c(/C=C/c2ccc3ccccc3[n+]2C)c(OC)c1` in the assay.
true (1)

Name the outcome recorded for `COc1cc2c(cc1C)NC(=O)/C2=C\c1cc(OC)c(OC)c(OC)c1` in the assay.
false (0)

Name the outcome recorded for `CCOC(=O)[C@@H](C)C[C@H](Cc1ccccc1)NC(=O)c1csc([C@@H](C[C@H](C(C)C)N(C)C(=O)[C@@H](NC(=O)[C@H]2C[C@H](O[Si](C)(C)C(C)(C)C)CCN2C)C(C)C)OC(C)=O)n1` in the assay.
true (1)

Name the outcome recorded for `S=C(Nc1ccc(-c2nc3ccccc3[nH]2)cc1)NC1CCCCC1` in the assay.
false (0)

----------
Tested on: NCI-H23 lung
Experiment: NCI tumour cell line growth inhibition, 48 h
Observed Property: TGI (µM)
Give bare numbers, in µM.

The following molecules each have a reported value; give each one's TGI.
1. O=C1C=C(c2c(O)ccc3ccccc23)c2ccccc2C1=O
2. Cc1ccc(S(=O)(=O)N2CCN(CCN(C)CCN3CCN(S(=O)(=O)c4ccc(C)cc4)CC3)CC2)cc1
3. Nc1c(C(=O)c2ccccc2)sc2nc(-c3cccs3)ccc12
4. O=c1oc2ccccc2c(O)c1/C=N\c1nc(-c2ccccc2)cs1
5. N#Cc1c2c(c(N3CCOCC3)n3c1nc1ccccc13)CCCC2
6. CC(C)(C)N1Cc2ccccc2/C(=C/Sc2ccccc2)C1=O
7. Cc1cc2nc3c(=O)n(C)c(=O)nc-3n(-c3ccc(Cl)cc3)c2cc1C

1. 4.92
2. 44.8
3. 10.1
4. 46.9
5. 47.3
6. 24.2
7. 26.2

----------
Record form. Attribute: TGI. Fill in for each entry.
Tested on: DMS 114 small cell lung
Test: NCI tumour cell line growth inhibition, 48 h

CC1=C2C(O)C(C(C)CO)C(O)CC2(C)C(O)CC1 (stereo not given) | > 100 µM
Cc1cc2nc3c(=O)n(C)c(=O)nc-3n(-c3ccc(Cl)cc3)c2cc1C | 13.7 µM
CCN(CC)CCn1c2c3ccccc3ccc2c2oc(=O)c3ccccc3c21 | > 100 µM

The following compounds each have a reported value; give each one's TGI.
1. O=C(Nc1ccccc1)c1ccc(Cl)c([N+](=O)[O-])c1
2. O=c1cc(-c2ccccc2)[nH]c2cc(Cl)cc(Cl)c12
3. O=C1C=C(c2c(O)ccc3ccccc23)c2ccccc2C1=O
4. CCN(CC)CCC1CC/C(=C\c2ccc(OC)cc2)C1=O (stereo not given)
5. C=C1C[C@]23C[C@@]1(O)CC[C@H]2[C@@]12C=C[C@H](O)[C@@](C)(C(=O)O1)[C@H]2[C@@H]3C(=O)O
6. CC(C)=CC(C(O)c1ccccc1)S(=O)(=O)c1nccn1C (stereo not given)
7. NC(N)=N/N=C(/c1nc2ccc([N+](=O)[O-])cc2[nH]c1=O)C(O)c1ccco1 (stereo not given)

1: 33.2 µM; 2: > 100 µM; 3: 6.71 µM; 4: > 100 µM; 5: > 100 µM; 6: > 100 µM; 7: > 100 µM
